# EXPERIMENTAL TARGET: T1, human IGF2^1-67 (mature insulin-like growth factor 2) (human, UniProt P01344 25-91, biotinylated (site not stated) where immobilised on the chip (Tables 1-4))
# T1 construct: mature; also called mature IGF2; biotinylated IGF2
# T1 sequence (P01344 25-91): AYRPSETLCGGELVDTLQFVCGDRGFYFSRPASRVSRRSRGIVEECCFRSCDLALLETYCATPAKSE
# TEST PROTOCOL: SPR kinetic, biotin-IGF2 on chip
The threshold is 20 nM. Values of Kd beneath it are tagged TRUE; values meeting or exceeding it are tagged FALSE.

Some solved entries appear below for comparison.
BINDER	CLASS LABEL
domain 11^WT + 26C (HI-DMQT) (receptor, See m5; Protein quality poor) MKSNEHDDCQVTNPSTGHLFDLSSLSGRAGFTAAYSEKGLVYMSICGENENCPPGVGACFGQTRISVGKANKRLRYVDQVLQLVYKDGSPCPSKSGLSYKSVISFVCRPEAGPTNRPMLISLDMQTCTLFFSWHTPLACEQATECSV	FALSE
IGF2R domain 11^AB3 (receptor, His6-tagged soluble domain 11; also called domain 11^E1544K, K1545S, L1547V; 1542YSKSGV1547) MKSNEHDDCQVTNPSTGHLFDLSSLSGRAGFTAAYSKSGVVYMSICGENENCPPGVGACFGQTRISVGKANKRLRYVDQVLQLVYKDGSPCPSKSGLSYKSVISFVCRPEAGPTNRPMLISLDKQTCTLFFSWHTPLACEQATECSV	TRUE
domain 11^WT + 312G (HI-VKLM) (receptor, See m5; Protein quality poor) MKSNEHDDCQVTNPSTGHLFDLSSLSGRAGFTAAYSEKGLVYMSICGENENCPPGVGACFGQTRISVGKANKRLRYVDQVLQLVYKDGSPCPSKSGLSYKSVISFVCRPEAGPTNRPMLISLVKLMCTLFFSWHTPLACEQATECSV	FALSE
domain 11^AB3 Q1569R (receptor, See m5; also called AB3 + 73E (CD-Q1569R)) MKSNEHDDCQVTNPSTGHLFDLSSLSGRAGFTAAYSKSGVVYMSICGENENCPPGVGACFGRTRISVGKANKRLRYVDQVLQLVYKDGSPCPSKSGLSYKSVISFVCRPEAGPTNRPMLISLDKQTCTLFFSWHTPLACEQATECSV	TRUE
domain 11^AB5 + 51F (HI-NRQS) (receptor, See m5; Protein quality poor) MKSNEHDDCQVTNPSTGHLFDLSSLSGRAGFTAAYAKGWGVYMSICGENENCPPGVGACFGQTRISVGKANKRLRYVDQVLQLVYKDGSPCPSKSGLSYKSVISFVCRPEAGPTNRPMLISLNRQSCTLFFSWHTPLACEQATECSV	TRUE
domain 11^WT + 27G (HI-NMAL) (receptor, See m5; Protein quality poor) MKSNEHDDCQVTNPSTGHLFDLSSLSGRAGFTAAYSEKGLVYMSICGENENCPPGVGACFGQTRISVGKANKRLRYVDQVLQLVYKDGSPCPSKSGLSYKSVISFVCRPEAGPTNRPMLISLNMALCTLFFSWHTPLACEQATECSV	FALSE
domain 11^AB3 P1597H (receptor, See m5; also called AB3 + 62B (FG-P1597H)) MKSNEHDDCQVTNPSTGHLFDLSSLSGRAGFTAAYSKSGVVYMSICGENENCPPGVGACFGQTRISVGKANKRLRYVDQVLQLVYKDGSHCPSKSGLSYKSVISFVCRPEAGPTNRPMLISLDKQTCTLFFSWHTPLACEQATECSV	TRUE
domain 11^WT + 23D (HI-HFQS) (receptor, See m5; Protein quality poor based on absorption spectra) MKSNEHDDCQVTNPSTGHLFDLSSLSGRAGFTAAYSEKGLVYMSICGENENCPPGVGACFGQTRISVGKANKRLRYVDQVLQLVYKDGSPCPSKSGLSYKSVISFVCRPEAGPTNRPMLISLHFQSCTLFFSWHTPLACEQATECSV	FALSE

Moving on to the next binder.
**Query** API: query returns whether the binder falls strictly under 20 nM in Kd. Query: IGF2R domain 11^WT (receptor, Soluble His6-tagged domain 11 from P. pastoris and/or E. coli; also called wild-type domain 11) MKSNEHDDCQVTNPSTGHLFDLSSLSGRAGFTAAYSEKGLVYMSICGENENCPPGVGACFGQTRISVGKANKRLRYVDQVLQLVYKDGSPCPSKSGLSYKSVISFVCRPEAGPTNRPMLISLDKQTCTLFFSWHTPLACEQATECSV
**Result** FALSE
